Assay: Cytotoxicity against human Detroit 551 cells after 72 hrs by XTT assay
Assay type: cell-based

| Molecule | Quantity unit | Operator | GI50 at 72 h |
| --- | --- | --- | --- |
| CCN(CC)CCOC(=O)c1ccc(/N=C2/c3ccccc3/C(=N/c3ccc(C(=O)OCCN(CC)CC)cc3)c3occc32)cc1 | µM | = | 1.97 |
| CC(=O)O/N=C1/c2ccccc2C(=O)c2occc21 | µM | > | 100 |
| O=C1c2ccccc2C(=O)c2occc21 | µM | = | 14.8 |
| CO/N=C1/c2ccccc2C(=O)c2occc21 | µM | > | 100 |
| O=C1c2ccccc2/C(=N/O)c2ccoc21 | µM | > | 100 |
| COc1cccc2c1C(=O)c1c(O)c3c(c(O)c1C2=O)C[C@@](O)(C(C)=O)C[C@@H]3O[C@H]1C[C@H](N)[C@H](O)[C@H](C)O1 [DAUNORUBICIN] | µM | = | 1.77 |
| CC[C@@]1(O)C(=O)OCc2c1cc1n(c2=O)Cc2cc3ccccc3nc2-1 [CAMPTOTHECIN] | µM | = | 0.99 |
| Br.NCCCO/N=C1/c2ccccc2C(=O)c2occc21 | µM | = | 40.9 |
| O=C1C(=O)c2ccoc2-c2ccccc21 | µM | = | 5.77 |

###

Recorded GI50 for the following compounds
Tested on: K562
Assay: Cytotoxicity against human K562 cells after 72 hrs by XTT assay
Assay type: functional
Details: K562, 72 h

| Query smiles | Quantity unit | GI50 |
| --- | --- | --- |
| Br.NCCCO/N=C1/c2ccccc2C(=O)c2occc21 | nM | 6620 |
| COc1cccc2c1C(=O)c1c(O)c3c(c(O)c1C2=O)C[C@@](O)(C(C)=O)C[C@@H]3O[C@H]1C[C@H](N)[C@H](O)[C@H](C)O1 | nM | 7.4 |
| O=C1c2ccccc2/C(=N/O)c2ccoc21 | nM | 820 |
| CCN(CC)CCOC(=O)c1ccc(/N=C2/c3ccccc3/C(=N/c3ccc(C(=O)OCCN(CC)CC)cc3)c3occc32)cc1 | nM | 630 |

###

Test system: K562
Experiment: Cell cycle arrest in human K562 cells assessed as accumulation at G0/G1 phase at 1 uM after 24 hrs using propidium iodide staining by flow cytometry
Assay type: functional

| Query smiles | Activity (%) |
| --- | --- |
| Br.NCCCO/N=C1/c2ccccc2C(=O)c2occc21 | 33.5 |
| CC(=O)O/N=C1/c2ccccc2C(=O)c2occc21 | 29 |
| O=C1C(=O)c2ccoc2-c2ccccc21 | 36.1 |
| O=C1c2ccccc2/C(=N/O)c2ccoc21 | 37.7 |
| CCN(CC)CCOC(=O)c1ccc(/N=C2/c3ccccc3/C(=N/c3ccc(C(=O)OCCN(CC)CC)cc3)c3occc32)cc1 | 40.4 |
| O=C1c2ccccc2C(=O)c2occc21 | 27.4 |
| CO/N=C1/c2ccccc2C(=O)c2occc21 | 26.1 |

###

Test system: MCF7
Experiment: Cytotoxicity against human MCF7 cells at 4 ug/ml after 48 hrs by sulforhodamine B assay relative to control
Type: functional

| Query smiles | Activity [%] |
| --- | --- |
| Clc1ccc(/N=C2/c3ccccc3/C(=N/c3ccc(Cl)cc3)c3occc32)cc1 | 109 |
| Cc1ccc(/N=C2/c3ccccc3/C(=N/c3ccc(C)cc3)c3occc32)cc1 | 104 |
| CN(C)CCO/N=C1/c2ccccc2C(=O)c2occc21 | 78 |
